experiment.notes: log P by HPLC (OECD Guideline 117), method [a] acidic range
Type: physicochemical
measurement.parameters: HPLC, method [a] acidic range
Method: The log P values were determined analogously to OECD Guideline 117 (EC Directive 92/69/EEC) by HPLC (high-performance liquid chromatography) using reversed-phase columns (C 18), by the following methods: [a] The LC-MS determination in the acidic range is effected at pH 2.7 with 0.1% aqueous formic acid and acetonitrile (contains 0.1% formic acid) as eluents; linear gradient from 10% acetonitrile to 95% acetonitrile.
property.name: logP[a]

1) Cc1cc(C)c([S+]([O-])CC(F)(F)F)cc1-n1ncn(C(C)(C)C)c1=O (centres unmarked) [Example 372] | 2.34
2) CCOc1nn(-c2cc(SCC(F)(F)F)c(C)cc2F)c(=O)n1C [Example 129] | 3.19
3) CCn1c(OC)nn(-c2cc([S+]([O-])CC(F)(F)F)c(C)cc2F)c1=O (centres unmarked) [Example 181] | 2.11
4) CCC[S+]([O-])c1nn(-c2cc([S+]([O-])CC(F)(F)F)c(C)cc2F)c(=O)n1C (centres unmarked) [Example 246] | 1.99
5) CCC[S+]([O-])c1nn(-c2cc([S+]([O-])CC(F)(F)F)c(C)cc2F)c(=O)n1C1CC1 (centres unmarked) [Example 237] | 2.14
6) CNn1cnn(-c2cc(SCC(F)(F)F)c(C)cc2F)c1=O [Example 203] | 2.32
7) Cc1cc(F)c(-n2nc(C)n(N)c2=O)cc1[S+]([O-])CC(F)(F)F (centres unmarked) [Example 209] | 1.36
8) CCCOc1nn(-c2cc(SCC(F)(F)F)c(C)cc2F)c(=O)n1C [Example 127] | 3.61
9) CCCCOc1nn(-c2cc([S+]([O-])CC(F)(F)F)c(C)cc2F)c(=O)n1C (centres unmarked) [Example 146] | 2.90
10) Cc1cc(F)c(-n2nc(C3CC3)n(C3CC3)c2=O)cc1[S+]([O-])CC(F)(F)F (racemic) [Example 66] | 2.31
11) Cc1cc(F)c(-n2nc(SC(C)C)n(C)c2=O)cc1SCC(F)(F)F [Example 276] | 3.86
12) Cc1cc(F)c(-n2nc(Br)n(C3CC3)c2=O)cc1SCC(F)(F)F [Example 294] | 3.48
13) COC1=CC(=O)N(c2cc([S+]([O-])CC(F)(F)F)c(Cl)cc2Cl)C1 (racemic) [Example 314] | 2.24
14) CCCSc1nn(-c2cc([S+]([O-])CC(F)(F)F)c(C)cc2F)c(=O)n1C (centres unmarked) [Example 278] | 2.80
15) Cc1cc(F)c(-n2nc(SC(F)(F)F)n(C)c2=O)cc1SCC(F)(F)F [Example 283] | 3.71
16) C=CCn1c(C(F)(F)F)nn(-c2cc([S+]([O-])CC(F)(F)F)c(C)cc2F)c1=O (centres unmarked) [Example 364] | 3.00
17) Cc1cc(F)c(-n2nc(C3CC3)n(N)c2=O)cc1[S+]([O-])CC(F)(F)F (centres unmarked) [Example 206] | 1.75

---

experiment.notes: log P by HPLC (OECD Guideline 117), method [a] acidic range
Assay type: physicochemical
measurement.parameters: HPLC, method [a] acidic range
# note: boundary value 3 maps to no (0); logP[a] below it maps to yes (1)

1) CCCOc1nn(-c2cc([S+]([O-])CC(F)(F)F)c(C)cc2F)c(=O)n1CC (centres unmarked) [Example 408] | yes (1)
2) Cc1cc(F)c(-n2nc(SCc3ccccc3)n(C)c2=O)cc1SCC(F)(F)F [Example 286] | no (0)
3) Cc1cc(F)c(-n2nc(OCc3ccccc3)n(C3CC3)c2=O)cc1[S+]([O-])CC(F)(F)F (centres unmarked) [Example 414] | no (0)
4) COCCOC1=CC(=O)N(c2cc(SCC(F)(F)F)c(C)cc2F)C1 [Example 328] | yes (1)
5) COc1nn(-c2cc([S+]([O-])CC(F)(F)F)c(C)cc2F)c(=O)n1CC(F)(F)F (centres unmarked) [Example 415] | yes (1)
6) CCC[S+]([O-])c1nn(-c2cc([S+]([O-])CC(F)(F)F)c(C)cc2F)c(=O)n1CC (centres unmarked) [Example 251] | yes (1)
7) Cc1cc(F)c(-n2nc(OCC(F)(F)F)n(C3CC3)c2=O)cc1SCC(F)(F)F [Example 103] | no (0)
8) Cc1cc(F)c(N2CC(OCC3CC3)=CC2=O)cc1[S+]([O-])CC(F)(F)F (centres unmarked) [Example 332] | yes (1)
9) CNn1c(N(C)C)nn(-c2cc([S+]([O-])CC(F)(F)F)c(C)cc2F)c1=O (centres unmarked) [Example 217] | yes (1)
10) COC1=CC(=O)N(c2ccc(C#N)c(SCC(F)(F)F)c2)C1 [Example 320] | yes (1)
11) Cc1cc(F)c(-n2nc(OCC(F)(F)F)n(C)c2=O)cc1[S+]([O-])CC(F)(F)F (centres unmarked) [Example 160] | yes (1)
12) CNc1nn(-c2cc([S+]([O-])CC(F)(F)F)c(C)cc2F)c(=O)n1N (centres unmarked) [Example 219] | yes (1)
13) Cc1cc(F)c(-n2nc(C(F)(F)F)n(N)c2=O)cc1SCC(F)(F)F [Example 205] | no (0)
14) Cc1cc(F)c(-n2nc(CCOC(C)C)n(C3CC3)c2=O)cc1SCC(F)(F)F [Example 359] | no (0)
15) CCOc1nn(-c2cc(SCC(F)(F)F)c(C)cc2F)c(=O)n1C1CC1 [Example 120] | no (0)
